The measurements presented in this section are drawn from patent US12595246B2.

test: Dynamic vapor sorption (DVS) isotherm analysis, with XRPD before and after DVS; format: physicochemical; conditions: rating in words, based on uptake at 80% RH
MEASUREMENT_LABEL: hygroscopicity rating by DVS isotherm analysis

In [3]: df
Out[3]:
                                   compound  reported_measurement
0  CCN1CCN(Cc2ccc(Nc3ncc(F)c(-c4cc(F)c5nc(C)n(C(C)C)c5c4)n3)nc2)CC1.Cl [1⋅HCl (1:1; Form A)]           hygroscopic
1  CCN1CCN(Cc2ccc(Nc3ncc(F)c(-c4ccc5nn(C)c(C(C)C)c5c4)n3)nc2)CC1 [freebase of 1 (Form D)]           hygroscopic
2  CCN1CCN(Cc2ccc(Nc3ncc(F)c(-c4cc(F)c5nc(C)n(C(C)C)c5c4)n3)nc2)CC1.O=P(O)(O)O           hygroscopic
